Target: SARS-COV-2 Wuhan Reference RBD (SARS-CoV-2, UniProt P0DTC2 319-541)
Test: ELISA, RBD coated
In this section, each of the binders is paired with its reported log10(EC50).
Hi team, quick reminder: these entries are log10 of EC50 (nM).

binder="PP934 MBP-5HVZ-S3a-H2-H6 (VHH, Form: Dimer) VHH: QVQLVESGGGLVQPGGSLRLSCAASGAAFSKNALHWFRQAPGKGREWVASITSGSGTQYMDSVKGRFTISRDNAKNTVYLQMNSLKPEDTAVYYCAALAYSGGYDYWGQGTQVTVSS" reported_property=log10(EC50) observed_value=0.03
binder="PP1107 MBP-5HVZ-PAPA-RN-22-H6 (VHH, Form: Dimer) VHH: QVQLVESGGGLVQPGGSLRLSCAASGSISEINLLHWFRQAPGKQREWVATMTSGGSTDYADSVKGRFTISRDNAKNTVYLQMNSLKPEDTAVYYCAADEFTKYGHGRYWGQGTQVTVSS" reported_property=log10(EC50) observed_value=-0.57
binder="PP1112 MBP-5HVZ-PAPA-RN-28-H6 (VHH, Form: Dimer) VHH: QVQLVESGGGLVQPGGSLRLSCAASGSQFSHNLMSWFRQAPGKQREFVAAITSFGSTGYADSVKGRFTISRDNAKNTVYLQMNSLKPEDTAVYYCAALSSEDTSHYPRNYWGQGTQVTVSS" reported_property=log10(EC50) observed_value=0.13
binder="PP1095 MBP-5HVZ-PAPA-RN-2-H6 (VHH) VHH: QVQLVESGGGLVQPGGSLRLSCAASGSYFSKNAVHWYRQAPGKGREWVAALTNSGSGNYKDSVKGRFTISRDNAKNTVYLQMNSLKPEDTAVYYCTANISESTGQGYDYWGQGTQVTVSS" reported_property=log10(EC50) observed_value=-0.11

Prompt line: Item under review: PP914 MBP-5HVZ-S3a-H1-H6 (VHH, Form: Dimer) VHH: QVQLVESGGGLVQPGGSLRLSCAASGGIYSPYSMHWFRQAPGKAREWVAGIVGGGGTTYSDSVKGRFTISRDNAKNTVYLQMNSLKPEDTAVYYCNANYQEYDEYDYWGQGTQVTVSS . Reported log10(EC50)?
Response line: 0.51

Prompt line: Give its log10(EC50) value. Item: PP1104 MBP-5HVZ-PAPA-RN-19-H6 (VHH, Form: Dimer) VHH: QVQLVESGGGLVQPGGSLRLSCAASGIDDSIGAMHWFRQAPGKGREFVAALSGTGTTSYADSVKGRFTISRDNAKNTVYLQMNSLKPEDTAVYYCAAAFPAGGDYWGQGTQVTVSS
Response line: 0.08

Prompt line: Could you tell me which log10(EC50) is on file for PP931 MBP-5HVZ-R5a-F5-H6 (VHH, Form: Dimer) VHH: QVQLVESGGGLVQPGGSLRLSCAASGYHASILAMHWVRQAPGKEREWVASMTWSDMTQYSDSVKGRFTISRDNAKNTVYLQMNSLKPEDTAVYYCAATYVTRDRPWTHWGQGTQVTVSS ?
Response line: 0.29

Prompt line: I'd like to know its log10(EC50). The binder in question is PP1102 MBP-5HVZ-PAPA-RN-17-H6 (VHH, Form: Dimer) VHH: QVQLVESGGGLVQPGGSLRLSCAASGSMYSRAVMHWFRQAPGKEREGVASIGRTGDSYYADSVKGRFTISRDNAKNTVYLQMNSLKPEDTAVYYCAADNLDVVYGNRYWGQGTQVTVSS
Response line: -0.01
